- system_tested: p53 (Homo sapiens)
- Construct: made in house; host or cells: bacteria (pGex-6P-1-p53); plasmid was a gift from Dr. Guangchao Sui
- run_description: AlphaScreen proximity assay (counterscreen), binding of recombinant p53 to cognate DNA oligo
# maps each entry to its IC50
Write the value in µM as a bare number.

Study these solved cases before continuing.
- molecule: "CC(C)=CC[C@@H](O)C1=CC(=O)c2c(O)ccc(O)c2C1=O"
  system_tested: "p53 (Homo sapiens)"
  IC50 / µM: 0.633
- molecule: "COc1cccc2c1C(=O)c1c(O)c3c(c(O)c1C2=O)C[C@@](O)(C(=O)CO)C[C@@H]3O[C@H]1C[C@H](N)[C@@H](O)[C@H](C)O1 [Epirubicin]"
  system_tested: "p53 (Homo sapiens)"
  IC50 / µM: 0.389
- molecule: "c1nc2nc(Nc3ccc(N4CCOCC4)cc3)nc(NC3CCCCC3)c2[nH]1"
  system_tested: "p53 (Homo sapiens)"
  IC50 / µM: 2.71

In the following, a different molecule is considered.
INPUT: Using the record for COc1cccc2c1C(=O)c1c(O)c3c(c(O)c1C2=O)C[C@@](O)(C(=O)CO)C[C@@H]3O[C@H]1C[C@H](N)[C@H](O)[C@H](C)O1 , report its IC50.
OUTPUT: 1.22

----------
- system_tested: EWS-FLI1
- run_description: AlphaScreen proximity assay, binding of recombinant EWS-FLI1 to cognate DNA oligo
- reported_conditions: read-out: IC50 EWS-FLI1, disruption of recombinant EWS-FLI1 binding to DNA
Structures can show the parent of a compound that is named as a salt.
# maps each entry to its pIC50
pIC50 field: float, defined as -log10 of concentration (mol/L).

- compound: "CCOc1ccc(C=C2SC(=O)N(CCN)C2=O)cc1.Cl"
  recorded_endpoint: "pIC50"
  number: 5.47
- compound: "CCOc1ccc2c(c1)C(C)=CC(C)(C)N2"
  recorded_endpoint: "pIC50"
  number: 6.33
- compound: "CCN(CC)CCCC(C)Nc1c2ccc(Cl)cc2nc2ccc(OC)cc12 (centres unmarked) [Quinacrine HCl]"
  recorded_endpoint: "pIC50"
  number: 5.15
- compound: "N.N.[Cl][Pt][Cl] [Cisplatin]"
  recorded_endpoint: "pIC50"
  number: 5.27
- compound: "CC(C)=CC[C@@H](O)C1=CC(=O)c2c(O)ccc(O)c2C1=O"
  recorded_endpoint: "pIC50"
  number: 6.22
- compound: "CN(C)c1ccc(/C=C2\\C(=O)Nc3ccccc32)cc1"
  recorded_endpoint: "pIC50"
  number: 5.47

INPUT: Using the record for COc1cccc2c1C(=O)c1c(O)c3c(c(O)c1C2=O)C[C@@](O)(C(=O)CO)C[C@@H]3O[C@H]1C[C@H](N)[C@@H](O)[C@H](C)O1 [Epirubicin] , report its pIC50.
OUTPUT: 7.38

INPUT: Same thing, different compound: c1nc2nc(Nc3ccc(N4CCOCC4)cc3)nc(NC3CCCCC3)c2[nH]1
OUTPUT: 5.62

INPUT: Same thing, different compound: COc1ccc2[nH]c([S+]([O-])Cc3ncc(C)c(OC)c3C)nc2c1 (centres unmarked)
OUTPUT: 5.14

INPUT: Same thing, different compound: COc1cccc2c1C(=O)c1c(O)c3c(c(O)c1C2=O)C[C@@](O)(C(=O)CO)C[C@@H]3O[C@H]1C[C@H](N)[C@H](O)[C@H](C)O1
OUTPUT: 6.46

INPUT: Same thing, different compound: CC(C)/N=c1\cc2n(-c3ccc(Cl)cc3)c3ccccc3nc-2cc1Nc1ccc(Cl)cc1
OUTPUT: 6.69

----------
- system_tested: p53 (Homo sapiens)
- Construct: made in house; host or cells: bacteria (pGex-6P-1-p53); plasmid was a gift from Dr. Guangchao Sui
- run_description: AlphaScreen proximity assay (counterscreen), binding of recombinant p53 to cognate DNA oligo
- reported_conditions: AlphaScreen, disruption of recombinant p53 binding to DNA; read-out: IC50 p53
Where a name gives a salt, the structure may show the parent alone.
# maps each entry to its pIC50
pIC50 field: float, defined as -log10 of concentration (mol/L).

- molecule: "CN(C)c1ccc(/C=C2\\C(=O)Nc3ccccc32)cc1 [DMBI]"
  pIC50: 5.42
- molecule: "CCOc1ccc2c(c1)C(C)=CC(C)(C)N2 [Ethoxyqiun]"
  pIC50: 6.32
- molecule: "CC(=O)[O][Hg][c]1ccccc1 [Phenylmericuric Acetate]"
  pIC50: 7.60

INPUT: Using the record for CC(C)[C@H](CO)Nc1nc(Nc2cc(N)cc(Cl)c2)c2ncn(C(C)C)c2n1 [Aminopurvalanol A] , report its pIC50.
OUTPUT: 5.92

INPUT: Same thing, different molecule: CCN(CC)CCCC(C)Nc1c2ccc(Cl)cc2nc2ccc(OC)cc12 (centres unmarked) [Quinacrine HCl]
OUTPUT: 5.22

INPUT: Same thing, different molecule: N.N.[Cl][Pt][Cl] [Cisplatin]
OUTPUT: 5.05

INPUT: Same thing, different molecule: CCCCc1oc2ccccc2c1C(=O)c1cc(I)c(OCCN(CC)CC)c(I)c1 [Amiodarone HCl]
OUTPUT: 5.28

INPUT: Same thing, different molecule: CC(C)/N=c1\cc2n(-c3ccc(Cl)cc3)c3ccccc3nc-2cc1Nc1ccc(Cl)cc1 [Clofazimine]
OUTPUT: 6.69

INPUT: Same thing, different molecule: Cn1c2ccccc2c2c3c(c4c5ccccc5n(CCC#N)c4c21)CNC3=O [Go 6976]
OUTPUT: 5.55
